assay: protease stability score; higher = more stable; yeast display proteolysis, trypsin and chymotrypsin;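 further: relative to predicted unfolded state with 0 unfolded-like and 1 meaning tenfold more protease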
Property name: protease stability score
Give bare numbers.

INSERT INTO results (primary_sequence, measured_number) VALUES
  ('SEMEKLYRDLYKRFLDNWVTGDEEKLIKYADPNTRLHVGDKHHHGMEHISHLFLEFVYRADHHEYRIDRLEVVDGVAISDGRMREEIGEFELRFDVEIRIVIVNGRLKWIEVSFK', 0.839),
  ('SDEMEEYEDFMKRVLEALETGDFREIRHLFDPDVKIHIDGRDIVGRESYTEHVRKWREDLGFDHIHLKIHDVKLFDGQIHVDARLEIRIGDKRDSHNVEFRLHKVDGQWLVRRVHVH', 1.6);

Requested field: protease stability score. Item: `TEDEENAERVARMFLKLLTTGDEHRLTELLDPNVIVEVGDKILIGREEALKLLRTWREKYGIDHVDVRHVEIEIVGDKVNVHMHGTIYVGDKKKDTRIHLHIRKINGRWMVEKVSIEEK` 2.68
